Tested on: Plasmodium falciparum
experiment: Antiplasmodial activity against blood stage drug sensitive Plasmodium falciparum NF54 incubated for 72 hrs
Format: functional, organism-based
measurement.setup: NF54, 72 h
measured.metric: IC50 (µM)
Numeric answer only, unit µM assumed.

-- ask Report value only: IC50, Plasmodium falciparum, COc1ccc(-c2ccc3nccc(N[C@@H]4CCNC4)c3n2)cn1
-- reply 0.225

====

experiment: Teratogenicity in zebrafish assessed as active concentration at which 50% larvae shows teratogenic phenotype
Type: toxicity, Danio rerio
measured.metric: pEC50
pEC50 is defined as minus the log10 of a concentration measured in mol/L.

-- ask Indicate its recorded pEC50; the compound in question is CCN(CC)c1ccc(C=O)cc1
-- reply 6.00
